Hey, just so you know, these numbers are from PubChem BioAssay (EPA / NIEHS).

Assay: ATG_RORE_CIS: Attagene CIS-FACTORIAL HepG2 Assay for human RAR-related Orphan Receptor Element (RORE) (AID 2282959)
Conditions: HepG2 Attagene cis-factorial RORE reporter, mRNA; actives raise or lower the signal
Method: ATG_CIS is a cell-based, multiplexed-readout assay that uses HepG2, a human liver cell line, with measurements taken at 24 hours after chemical dosing in a 24-well plate.ATG_RORE_CIS is one of 52 assay component(s) measured or calculated from the ATG_CIS assay. […] This assay endpoint, ATG_RORE_CIS, was analyzed with bidirectional fitting relative to DMSO as the negative control and baseline of activity. […]
The source made the active and inactive calls. Rule for the calls: active = hit-call score of the fitted dose curve at least 0.9, where 1 is the maximum; inactive = score below 0.9.
Please reply with one of these outcomes: active, inactive

Query block: What is the recorded call for this molecule in the test? CN(C)CCOC(C)(c1ccccc1)c1ccccn1 (stereo not drawn)
Result block: inactive

Query block: What is the recorded call for this molecule in the test? O=C1OC(=O)c2c(Cl)c(Cl)c(Cl)c(Cl)c21
Result block: inactive

Query block: What is the recorded call for this molecule in the test? CCCC(O)C(O)CO (stereo not drawn)
Result block: inactive

Query block: What is the recorded call for this molecule in the test? C=COCCOCCOC=C
Result block: inactive

Query block: What is the recorded call for this molecule in the test? C=C(C)C1CC=C(C)C(=O)C1 (stereo not drawn)
Result block: inactive

Query block: What is the recorded call for this molecule in the test? CN1C(=O)c2ccccc2C1=O
Result block: inactive

Query block: What is the recorded call for this molecule in the test? CC1CC(O)CC(C)(C)C1 (stereo not drawn)
Result block: inactive

Query block: What is the recorded call for this molecule in the test? C=CC(=O)OCCCC
Result block: inactive

Query block: What is the recorded call for this molecule in the test? CCC1CCCCC1
Result block: inactive

Query block: What is the recorded call for this molecule in the test? CCNCCO
Result block: inactive

Query block: What is the recorded call for this molecule in the test? Nc1ccn([C@H]2CS[C@@H](CO)O2)c(=O)n1
Result block: inactive

Query block: What is the recorded call for this molecule in the test? CS(C)=O
Result block: inactive

Query block: What is the recorded call for this molecule in the test? COc1ccccc1N=Nc1c(S(=O)(=O)O)cc2cc(S(=O)(=O)O)cc(NC(C)=O)c2c1O
Result block: inactive

Query block: What is the recorded call for this molecule in the test? CCCCCCCCCCCC(=O)OC[C@@H](O)[C@H]1OC[C@H](O)[C@H]1O
Result block: inactive

Query block: What is the recorded call for this molecule in the test? CCCCSCCCC
Result block: inactive

Query block: What is the recorded call for this molecule in the test? CCCC[O][Al]([O]CCCC)[O]CCCC
Result block: inactive

Query block: What is the recorded call for this molecule in the test? C/C=C(\C)C(=O)OCCc1ccccc1
Result block: inactive

Query block: What is the recorded call for this molecule in the test? C[N+](C)(C)CCCCCC[N+](C)(C)C
Result block: inactive

Query block: What is the recorded call for this molecule in the test? COc1ccc(COC(C)=O)cc1
Result block: inactive

* * *

target: Nuclear receptor subfamily 4 group A member 2 (Homo sapiens); test: ATG_NURR1_TRANS: Attagene TRANS-FACTORIAL HepG2 Assay for human Nuclear Receptor Related Protein 1 (NURR1) (AID 2282985); details: HepG2 Attagene TRANS reporter, mRNA readout
Results filed as inconclusive are left out. Calls of active or inactive are those of the source. How the source made its calls: active means hit-call score of the fitted dose curve at least 0.9, where 1 is the maximum; inconclusive means response in the unintended direction; inactive means score below 0.9.
Please reply with one of these outcomes: True for active, False for inactive

Worked examples follow.
Query block: What is the recorded call for this compound in the test? O=C1c2ccccc2C(=O)c2c(O)ccc(O)c21
Result block: False

Query block: What is the recorded call for this compound in the test? CCCCCCC(C)(C)S
Result block: False

Query block: What is the recorded call for this compound in the test? c1ccc(Oc2ccccc2)cc1
Result block: False

Query block: What is the recorded call for this compound in the test? COC(C)(C)CC(C)=O
Result block: False

Query block: What is the recorded call for this compound in the test? CCOc1ccc(NC(=O)CC(C)O)cc1 (stereo not drawn)
Result block: False

***
Query block: What is the recorded call for this compound in the test? CCCC(=O)OCCc1ccccc1
Result block: False

Query block: What is the recorded call for this compound in the test? c1ccc(CN(Cc2ccccc2)Cc2ccccc2)cc1
Result block: False

Query block: What is the recorded call for this compound in the test? CC1C2CC(CC2C2CCCC(O)C2)C1(C)C (stereo not drawn)
Result block: False

* * *

read-out: Human Leukocyte Antigen - DR isotype (HLADR), HLA-DRA (gene 3122); experiment: BSK_BE3C_HLADR: BioMAP Diversity Plus: BE3C Assay for Human Leukocyte Antigen - DR isotype (HLADR) Biomarker Activity (AID 2283032); details: primary human bronchial epithelial cells; actives raise or lower the signal
Activity calls are given as the source filed them. Rule for the calls: active = hit-call score of the fitted dose curve at least 0.9, where 1 is the maximum; inactive = score below 0.9.
Please reply with one of these outcomes: active, inactive

Query block: What is the recorded call for this compound in the test? O=C1c2ccccc2C(=O)c2c(O)ccc(O)c21
Result block: inactive

Query block: What is the recorded call for this compound in the test? COc1cc(Cl)c(OC)cc1N
Result block: inactive

Query block: What is the recorded call for this compound in the test? CCCCCCC(CO)CCCC (configuration not stated)
Result block: inactive

***
Query block: What is the recorded call for this compound in the test? CC(C)(C)CC(C)(C)c1ccc(OCCOCC[N+](C)(C)Cc2ccccc2)cc1
Result block: active

Query block: What is the recorded call for this compound in the test? CC(C=O)Cc1ccc(C(C)(C)C)cc1 (configuration not stated)
Result block: active

Query block: What is the recorded call for this compound in the test? CC1(C)C2=CCCC(C)(C)[C@]23CC[C@H]1C3
Result block: active

Query block: What is the recorded call for this compound in the test? CS(=O)(=O)c1ccc(C2=C(c3ccccc3)C(=O)OC2)cc1
Result block: inactive

* * *

Assay: ATG_M_19_CIS: Attagene CIS-FACTORIAL HepG2 Assay for M19 Transcription Factor (Internal Marker) (AID 2282939)
Conditions: HepG2 Attagene CIS-FACTORIAL M19 internal marker reporter; actives raise or lower the signal
Protocol: ATG_CIS is a cell-based, multiplexed-readout assay that uses HepG2, a human liver cell line, with measurements taken at 24 hours after chemical dosing in a 24-well plate.ATG_M_19_CIS is one of 52 assay component(s) measured or calculated from the ATG_CIS assay. […] This assay endpoint, ATG_M_19_CIS, was analyzed with bidirectional fitting relative to DMSO as the negative control and baseline of activity. […]
Active and inactive are the calls of the source. How the source made its calls: active means hit-call score of the fitted dose curve at least 0.9, where 1 is the maximum; inactive means score below 0.9.
Please reply with one of these outcomes: y = active, n = inactive

Worked examples follow.
Query block: What is the recorded call for this compound in the test? Clc1ccc(C(c2ccccc2Cl)C(Cl)Cl)cc1 (centres undefined)
Result block: y

Query block: What is the recorded call for this compound in the test? CC(=O)c1c(C)c([N+](=O)[O-])c(C(C)(C)C)c([N+](=O)[O-])c1C
Result block: n

Query block: What is the recorded call for this compound in the test? C=CCCC(=O)/C=C/C1C(C)=CCCC1(C)C (centres undefined)
Result block: n

Query block: What is the recorded call for this compound in the test? CCOCCOCCOCC
Result block: n

Query block: What is the recorded call for this compound in the test? CC(=O)CC(=O)Nc1ccccc1
Result block: n

Query block: What is the recorded call for this compound in the test? COc1cccc(OC)c1O
Result block: n

***
Query block: What is the recorded call for this compound in the test? BrCc1cccc(Oc2ccccc2)c1
Result block: n

Query block: What is the recorded call for this compound in the test? COC(C)(C)CC(C)=O
Result block: n

Query block: What is the recorded call for this compound in the test? C=C(C#N)C(=O)OCC
Result block: n

Query block: What is the recorded call for this compound in the test? CCC(Cl)C(Cl)C(Cl)CC(Cl)C(Cl)C(C)Cl (centres undefined)
Result block: n

Query block: What is the recorded call for this compound in the test? CN(C)CCOC(C)(c1ccccc1)c1ccccn1 (centres undefined)
Result block: n

Query block: What is the recorded call for this compound in the test? CC(C)(CO)[C@@H](O)C(=O)NCCC(=O)O
Result block: n

Query block: What is the recorded call for this compound in the test? O=C(c1ccccc1)C(O)c1ccccc1 (centres undefined)
Result block: n

Query block: What is the recorded call for this compound in the test? CC(=O)C(C)O (centres undefined)
Result block: n

Query block: What is the recorded call for this compound in the test? O=C1OC(=O)c2c(Cl)c(Cl)c(Cl)c(Cl)c21
Result block: n

Query block: What is the recorded call for this compound in the test? C[N+](C)(C)CCCCCC[N+](C)(C)C
Result block: n

Query block: What is the recorded call for this compound in the test? CCCCCCCCCCCCCCN(CCO)CCO
Result block: n

* * *

target: Bile acid receptor (Homo sapiens); assay: OT_FXR_FXRSRC1_0480: Odyssey Thera (OT) 8-hour HEK293T Protein-Complementation Assay for Farnesoid X receptor/SRC-1 Co-activator (AID 2283383)
Records with an inconclusive call do not appear. The source made the active and inactive calls. Rule for the calls: active = hit-call score of the fitted dose curve at least 0.9, where 1 is the maximum; inconclusive = response in the unintended direction; inactive = score below 0.9.
Please reply with one of these outcomes: active, inactive

Worked examples follow.
Query block: What is the recorded call for this molecule in the test? CC(=O)O[C@H]1C[C@@H]2CC[C@@]1(C)C2(C)C
Result block: inactive

Query block: What is the recorded call for this molecule in the test? COS(=O)(=O)O
Result block: inactive

Query block: What is the recorded call for this molecule in the test? CCCCCCCCSCCO
Result block: active

Query block: What is the recorded call for this molecule in the test? CCCCCCCCCCCCCC(=O)OCC(O)CO (stereo unspecified)
Result block: active

***
Query block: What is the recorded call for this molecule in the test? CC(C)CCOC(=O)c1ccccc1
Result block: inactive

Query block: What is the recorded call for this molecule in the test? CCOC(=O)[C@@H](C)Oc1ccc(Oc2nc3ccc(Cl)cc3o2)cc1
Result block: active

Query block: What is the recorded call for this molecule in the test? CC1CCC(C(C)C)C(O)C1 (stereo unspecified)
Result block: inactive

Query block: What is the recorded call for this molecule in the test? CC(C)CC(C)CC(O)CC(C)C (stereo unspecified)
Result block: inactive

Query block: What is the recorded call for this molecule in the test? CCOC(=O)c1ccc(N)cc1
Result block: inactive

Query block: What is the recorded call for this molecule in the test? CCc1cc(C(C)(C)C)c(O)c(C(C)(C)C)c1
Result block: active

Query block: What is the recorded call for this molecule in the test? CCC1(C)NC(=O)NC1=O (stereo unspecified)
Result block: inactive

Query block: What is the recorded call for this molecule in the test? CCCCC1CCC(O)CC1 (stereo unspecified)
Result block: inactive

Query block: What is the recorded call for this molecule in the test? C=C1C[C@]23C[C@@]1(O)CC[C@H]2[C@@]12C=C[C@H](O)[C@@](C)(C(=O)O1)[C@H]2[C@@H]3C(=O)O
Result block: inactive

Query block: What is the recorded call for this molecule in the test? Cc1cc(=O)oc2cc(N(C)C)ccc12
Result block: active

Query block: What is the recorded call for this molecule in the test? CCCCCCCCCC(=O)OC
Result block: inactive

Query block: What is the recorded call for this molecule in the test? c1ccc(Oc2ccccc2)cc1
Result block: inactive

Query block: What is the recorded call for this molecule in the test? O=C1NC2NC(=O)NC2N1 (stereo unspecified)
Result block: inactive

Query block: What is the recorded call for this molecule in the test? CCCCOC(=O)CCCCCCCC(=O)OCCCC
Result block: inactive

Query block: What is the recorded call for this molecule in the test? O=c1c(O)c(-c2ccc(O)cc2)oc2cc(O)cc(O)c12
Result block: inactive

Query block: What is the recorded call for this molecule in the test? CC(=O)O[C@@H]1CC2CCC1(C)C2(C)C (stereo partly specified)
Result block: inactive

Query block: What is the recorded call for this molecule in the test? C=C1CC[C@H](O)C/C1=C/C=C1\CCC[C@]2(C)[C@@H]([C@H](C)/C=C/[C@H](C)C(C)C)CC[C@@H]12
Result block: active

Query block: What is the recorded call for this molecule in the test? CSCCC=O
Result block: inactive

Query block: What is the recorded call for this molecule in the test? O=C1OC(=O)c2c(Cl)c(Cl)c(Cl)c(Cl)c21
Result block: inactive

Query block: What is the recorded call for this molecule in the test? CC(C)c1ccccc1O
Result block: inactive

Query block: What is the recorded call for this molecule in the test? Nc1ccccc1[N+](=O)[O-]
Result block: inactive

Query block: What is the recorded call for this molecule in the test? CCCCCCC(=O)c1ccccc1
Result block: inactive
